- TEST DETAILS: Antioxidant action using stable radicals: reduction activity of DPPH (M. S. Blois method)
- Assay type: biochemical
- TEST PARAMETERS: 0.1 mM DPPH solution in ethanol, absorbance at 517 nm after 20 minutes, difference from solvent control (0.5% or less DMF); read-out: 50% radical eliminating concentration
MEASUREMENT NAME: IC50 (µM)

See these solved cases before continuing.
O=C(O)CCCCCCCCCCOC1=C(O)C(=O)O[C@@H]1[C@@H](O)CO	24
O=C1O[C@H]([C@@H](O)CO)C(OCC(=O)c2ccccc2)=C1O	23
CCOC(=O)CCCOC1=C(O)C(=O)O[C@@H]1[C@@H](O)CO	21
CCCCOC(=O)COC1=C(O)C(=O)O[C@@H]1[C@@H](O)CO	18

1. CCOC(=O)COC1=C(O)C(=O)O[C@@H]1[C@@H](O)CO
2. CCCCCCCCCCCCCCCCCCOC1=C(O)C(=O)O[C@@H]1[C@@H](O)CO [compound 101, reference compound]
When the recorded IC50 values are compared, which is smaller: that of 1 or that of 2 ? Select an item and report its label.
1

---

- TEST DETAILS: Antioxidant action using stable radicals: reduction activity of DPPH (M. S. Blois method)
- Assay type: biochemical
- TEST PARAMETERS: 0.1 mM DPPH solution in ethanol, absorbance at 517 nm after 20 minutes, difference from solvent control (0.5% or less DMF); read-out: 50% radical eliminating concentration
MEASUREMENT NAME: IC50 (µM)

CCCCOC1=C(O)C(=O)O[C@@H]1[C@@H](O)CO	23
O=C(O)CCCOC1=C(O)C(=O)O[C@@H]1[C@@H](O)CO	27
CCCCCCCCOC1=C(O)C(=O)O[C@@H]1[C@@H](O)CO	19
CCOC(=O)C(C)OC1=C(O)C(=O)O[C@@H]1[C@@H](O)CO (stereo partly drawn)	19
CC(=O)COC1=C(O)C(=O)O[C@@H]1[C@@H](O)CO	22
CCOC(=O)CCCCOC1=C(O)C(=O)O[C@@H]1[C@@H](O)CO	20
CCCCCCCCCCCCOC1=C(O)C(=O)O[C@@H]1[C@@H](O)CO	18
CCCCCCCCCCOC(=O)COC1=C(O)C(=O)O[C@@H]1[C@@H](O)CO	23
O=C1O[C@H]([C@@H](O)CO)C(OCc2cccnc2)=C1O	23
